Assay: qHTS of pediatric cancer cell lines to identify multiple opportunities for drug repurposing: Primary screen for LAN-5 cells (AID 1347100); further: potency means the concentration at half of the fitted maximal effect
Conditions: LAN-5 neuroblastoma viability, CellTiter-Glo luminescence, 48 h; series mostly up to 46 µM
Records with an inconclusive call do not appear. Active and inactive are the calls of the source. The call rests on the fitted dose curve; in most records, active means well fitted cell-killing curve with a large enough effect; inconclusive means small, poorly fitted or top-dose-only effect; inactive means no such curve, though single readings can be large or run the other way.
Endpoint label: Potency

>  <Structure>
CCn1c(-c2nonc2N)nc2c(C#CC(C)(C)O)ncc(OC[C@H]3CCCNC3)c21

>  <Readout value>
5260 nM (active)

$$$$
>  <Structure>
COc1ccc2c3n(c(=NC(=O)c4cccnc4)nc2c1OC)CCN3

>  <Readout value>
14800 nM (active)

$$$$
>  <Structure>
COc1c(Cl)cc2c([nH]c3cnccc32)c1NC(=O)c1cccnc1C

>  <Readout value>
inactive

$$$$
>  <Structure>
CC(C)(C)OC(=O)CN(Cc1ccc(Cl)cc1)Cc1ccc([N+](=O)[O-])s1

>  <Readout value>
inactive

$$$$
>  <Structure>
CCOc1cc(N2CCC(O)CC2)ccc1Nc1ncc2c(n1)N(C)c1ccccc1C(=O)N2C

>  <Readout value>
93.5 nM (active)

$$$$
>  <Structure>
COc1cc(Nc2ncc3c(n2)-c2ccc(Cl)cc2C(c2c(F)cccc2OC)=NC3)ccc1C(=O)O

>  <Readout value>
9.3 nM (active)

$$$$
>  <Structure>
Nc1nccc(-c2ccc3noc(-c4ccc(Cl)cc4)c3c2)n1

>  <Readout value>
inactive

$$$$
>  <Structure>
N=c1nc(N2CCCCC2)cc(N)n1O

>  <Readout value>
inactive

$$$$
>  <Structure>
CN(C(=O)c1ccc(F)cc1C(F)(F)F)C1CCN(c2nnc(-c3ccnn3C)c3ccccc23)CC1

>  <Readout value>
inactive

$$$$
>  <Structure>
C[C@]12CCC(=O)C=C1CC[C@@H]1[C@@H]2[C@@H](O)C[C@@]2(C)[C@H]1CC[C@]2(O)C(=O)CO

>  <Readout value>
inactive

$$$$

---

Experiment: Quantitative High-Throughput drug screen in 47 multiple myeloma cell lines against the NCATS MIPE library collection: MMM1_PLB cell viability assay (AID 1918976); further: potency means the concentration at half of the fitted maximal effect; nearly all actives have a fitted effect of over 35% in size
Conditions: MMM1 myeloma cells viability, CellTiter-Glo, 48 h; series mostly up to 45.8 µM
Records with an inconclusive call do not appear. The source made the active and inactive calls. Calls follow the shape of the dose curve; as a rule, active = well fitted cell-killing curve with a large enough effect; inconclusive = small, poorly fitted or top-dose-only effect, or effect the other way; inactive = no such curve, though single readings can be large or run the other way.

>  <Compound>
Cc1ccc(NC(=O)c2cccc(C(C)(C)C#N)c2)cc1Nc1ccc2ncn(C)c(=O)c2c1

>  <Potency>
16.6 µM (active)

$$$$
>  <Compound>
CCCS(=O)(=O)Nc1ccc(F)c(C(=O)c2c[nH]c3ncc(-c4ccc(Cl)cc4)cc23)c1F

>  <Potency>
26.4 µM (active)

$$$$
>  <Compound>
CC(C)(C)OC(=O)CN(Cc1ccc(Cl)cc1)Cc1ccc([N+](=O)[O-])s1

>  <Potency>
20.9 µM (active)

$$$$
>  <Compound>
CC(C)C[C@H](NC(=O)[C@@H](O)[C@H](N)Cc1ccccc1)C(=O)O

>  <Potency>
20.9 µM (active)

$$$$
>  <Compound>
CC(=O)NC(C)c1ccc(Oc2ccc(OC(C)C)cc2)cc1 (stereo unspecified)

>  <Potency>
16.6 µM (active)

$$$$
>  <Compound>
NC[C@H](O)c1ccc(O)c(O)c1

>  <Potency>
23.5 µM (active)

$$$$
>  <Compound>
CCCCCCCc1ccc(CCc2cccc(O)c2C(=O)O)cc1

>  <Potency>
14.8 µM (active)

$$$$
>  <Compound>
Nc1ncnc2nc(-c3ccc(N4CCOCC4)nc3)cc(-c3cccc(Br)c3)c12

>  <Potency>
11.8 µM (active)

$$$$
>  <Compound>
Oc1cccc(-c2nc(N3CCOCC3)c3oc4ncccc4c3n2)c1

>  <Potency>
0.0679 µM (active)

$$$$
>  <Compound>
S=C(NCc1ccc2c(c1)OCO2)N1CCN(c2ncnc3c2oc2ccccc23)CC1

>  <Potency>
1.21 µM (active)

$$$$
>  <Compound>
O=C1CCCC2=C1C(c1[nH]ncc1Cl)N=C(Nc1nc3ccccc3o1)N2 (stereo unspecified)

>  <Potency>
4.69 µM (active)

$$$$
>  <Compound>
C[C@@H]1CN(Cc2ccc(F)cc2)[C@@H](C)CN1C(=O)c1cc2c(C(=O)C(=O)N(C)C)cn(C)c2cc1Cl

>  <Potency>
23.5 µM (active)

$$$$
>  <Compound>
CN(C)C(=O)c1ccc(S(=O)(=O)c2ccc(NC(=O)[C@@](C)(O)C(F)(F)F)c(Cl)c2)cc1

>  <Potency>
8.33 µM (active)

$$$$
>  <Compound>
CNC(=O)c1ccc(C)c(-n2c(C)cc(OCc3ccc(F)cc3F)c(Br)c2=O)c1

>  <Potency>
18.7 µM (active)

$$$$
>  <Compound>
COc1ccc(-c2ccc3c(N4CCOC[C@H]4C)nc(N4CCOC[C@H]4C)nc3n2)cc1CO

>  <Potency>
0.0105 µM (active)

$$$$
>  <Compound>
CC(C)(Sc1ccc(CCN(CCCCC2CCCCC2)C(=O)NC2CCCCC2)cc1)C(=O)O

>  <Potency>
18.7 µM (active)

$$$$
>  <Compound>
NNCCc1ccccc1

>  <Potency>
5.9 µM (active)

$$$$
>  <Compound>
Nc1nc2ccc(OC(F)(F)F)cc2s1

>  <Potency>
23.5 µM (active)

$$$$
>  <Compound>
Cc1cc2c(F)c(Oc3ncnn4cc(OC[C@@H](C)O)c(C)c34)ccc2[nH]1

>  <Potency>
2.09 µM (active)

$$$$
>  <Compound>
CC1(C)Cc2c(-c3ccccc3)c(-c3ccc(Cl)cc3)c(CC(=O)O)n2C1

>  <Potency>
20.9 µM (active)

$$$$
>  <Compound>
COc1cc(F)c(F)c(Nc2ccc(I)cc2F)c1NS(=O)(=O)C1(C[C@H](O)CO)CC1

>  <Potency>
2.64 µM (active)

$$$$
